Test: Clearance in Sprague-Dawley rat at 1.04 mg/kg, po or 0.52 mg/kg, iv
Type: ADME, organism-based
Settings: in vivo
Recorded Endpoint: clearance (mL/min/kg)
Lab book: enter the figure in mL/min/kg, no units written.

(Q) # input molecule: C[C@@H]1CCC[C@H](n2cnc(-c3cc(Cl)ccc3-n3cc(Cl)nn3)cc2=O)c2cc(ccn2)-c2c(cnn2C(F)F)NC1=O ; wanted: its clearance
(A) 7.1

* * *

Experiment: AUC in Sprague-Dawley rat at 1.06 mg/kg, po
Assay type: ADME, organism-based
Parameters: dose 1.06 mg/kg
Details: in vivo
Recorded Endpoint: AUC (µM·min)
# output: bare number, implied unit µM·min

(Q) What measured AUC goes with C[C@@H]1CCC[C@H](N2CCC(c3cc(Cl)ccc3-n3cc(Cl)nn3)=CC2=O)c2cc(ccn2)-c2c(cnn2C(F)F)NC1=O ?
(A) 18

* * *

Biological target: Kallikrein-1 (Homo sapiens, UniProt P06870)
Sequence (P06870 whole entry): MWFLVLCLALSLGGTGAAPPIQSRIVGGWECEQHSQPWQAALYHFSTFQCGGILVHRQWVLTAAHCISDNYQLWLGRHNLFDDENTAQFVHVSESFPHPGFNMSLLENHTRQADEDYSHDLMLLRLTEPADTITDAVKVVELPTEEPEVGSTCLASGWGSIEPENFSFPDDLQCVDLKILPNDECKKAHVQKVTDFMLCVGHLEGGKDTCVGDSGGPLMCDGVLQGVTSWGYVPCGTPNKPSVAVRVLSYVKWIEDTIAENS
Recorded Endpoint: Ki

(Q) Identify the measured Ki of C[C@@H]1CCC[C@H](n2cnc(-c3cc(Cl)ccc3-n3cc(Cl)nn3)cc2=O)c2cc(ccn2)-c2c(cnn2C(F)F)NC1=O [MILVEXIAN] for Kallikrein-1 (Homo sapiens, UniProt P06870).
(A) > 11 µM

* * *

Target: Urokinase-type plasminogen activator (Homo sapiens)
Recorded Endpoint: Ki (µM)
API: value field is a number in µM; no unit string.

(Q) Give its Ki value. Item: C[C@@H]1CCC[C@H](n2cnc(-c3cc(Cl)ccc3-n3cc(Cl)nn3)cc2=O)c2cc(ccn2)-c2c(cnn2C(F)F)NC1=O
(A) 3.9

* * *

Experiment: Protein binding in Sprague-Dawley rat plasma assessed as bound fraction
Type: ADME, cell-free
Parameters: dose or concentration left out as unconfirmed
We begin with a simple list: items and their reported fraction unbound.
Give a plain numeric answer without units written out.

For orientation, consider the following solved cases.
Smiles | fraction unbound
C[C@@H]1CCC[C@H](N2CCC(c3cc(Cl)ccc3-n3ccnn3)=CC2=O)c2cc(ccn2)-c2c(cnn2C(F)F)NC1=O | 0.249
C[C@@H]1CCC[C@H](N2CCC(c3cc(Cl)ccc3-n3cc(Cl)nn3)=CC2=O)c2cc(ccn2)-c2c(cnn2C(F)F)NC1=O | 0.06

(Q) # get_value(readout='fraction unbound', item= C[C@@H]1CCC[C@H](n2cnc(-c3cc(Cl)ccc3-n3cc(Cl)nn3)cc2=O)c2cc(ccn2)-c2c(cnn2C(F)F)NC1=O )
(A) 0.029

* * *

Biological target: Coagulation factor IX (Homo sapiens, UniProt P00740)
Sequence (P00740 47-191 limits assumed): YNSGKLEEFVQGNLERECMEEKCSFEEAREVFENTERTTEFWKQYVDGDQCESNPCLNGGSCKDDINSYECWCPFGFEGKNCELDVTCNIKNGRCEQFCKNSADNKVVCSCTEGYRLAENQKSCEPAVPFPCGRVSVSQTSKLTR
Sequence (P00740 227-461 limits assumed): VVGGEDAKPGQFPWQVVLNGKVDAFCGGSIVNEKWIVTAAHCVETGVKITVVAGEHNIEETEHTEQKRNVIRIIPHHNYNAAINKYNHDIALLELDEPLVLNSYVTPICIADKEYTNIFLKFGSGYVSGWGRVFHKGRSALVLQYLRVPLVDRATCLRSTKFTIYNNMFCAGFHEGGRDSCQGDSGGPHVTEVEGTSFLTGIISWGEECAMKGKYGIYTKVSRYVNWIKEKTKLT
pKi: −log10 of the molar value.
Recorded Endpoint: pKi

(Q) What value of pKi has been reported for the following compound? C[C@@H]1CCC[C@H](n2cnc(-c3cc(Cl)ccc3-n3cc(Cl)nn3)cc2=O)c2cc(ccn2)-c2c(cnn2C(F)F)NC1=O
(A) < 4.57

* * *

Quick reference for solubility among some compounds
Assay: Aqueous solubility of the compound at pH 1.0
Type: physicochemical
Settings: aqueous medium
Numeric only. Scale: µg/mL

Smiles | Units Label | solubility
C[C@@H]1CCC[C@H](n2cnc(-c3cc(Cl)ccc3-n3cc(Cl)nn3)cc2=O)c2cc(ccn2)-c2c(cnn2C(F)F)NC1=O | µg/mL | 8

(Q) Please look up its solubility: C[C@@H]1CCC[C@H](N2CCC(c3c(F)ccc(Cl)c3F)=CC2=O)c2cc(ccn2)-c2c(cnn2C)NC1=O
(A) 3
